The entries below are paired with their reported normalized growth.
# METHOD_NOTES: chemical genetic growth profiling, strain panel (AID 1159580);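 further: tested at 20 µM; growth read once vehicle control cultures reached saturation at 30 °C; 1 = growth at the plate median or of vehicle wells; lower values mean less growth of the strain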
# EXPERIMENTAL_PARAMETERS: S. cerevisiae deletion strains, growth OD, locus YNL209W, strain ssb2, hits give low values
Out of some 5,500 compounds screened, about 2,000 (36%) were called active. Roughly 18% stayed inconclusive and do not appear here. Some of the results follow.
Returns: the value as a bare number; no unit string appended.

Below: 5 compounds and their reported normalized growth.
COMPOUND	normalized growth
CN1CCC(OC(c2ccccc2)c2ccccc2)CC1	0.988
Cc1ncc(CNC(=O)N(CCCl)N=O)c(N)n1	0.992
COc1cc(CNC(=O)CCCC/C=C/C(C)C)ccc1O	1
C=CCc1ccc(OC)cc1	0.992
Cn1c(=O)c2c(ncn2CC(O)CO)n(C)c1=O (centres undefined)	0.995

Query: Give the reported normalized growth for this compound. O=C(O)c1cc2cc(F)ccc2[nH]1
Reply: 0.983

Query: Give the reported normalized growth for this compound. Cc1[nH]c2ccccc2c1CN(C)C
Reply: 1.04
